# run description: small-molecule microarray binders of probe aCHRDL2, primary screen, biochemical, biotinylated probe, 635/667 nm fluorescence (AID 1100)
# condition label: higher = more signal
Assignment: determine reported composite z-score for the given molecules.
Keep the answer to the number alone.

Ask: Suppose we examine the molecule CC(C)=CCCC(C)=CC(O)C1C=CC2C(=O)N(C)C(=O)C2N1Nc1ccccc1 (stereo not drawn) ; what composite z-score value has been reported?
Reply: 0.55

Ask: Suppose we examine the molecule `COC(=O)[C@H](Cc1ccccc1)N[C@@H](/C=C/C1CC1)[C@H](O)Cc1ccccc1` ; what composite z-score value has been reported?
Reply: 0.442

Ask: Suppose we examine the molecule `[N-]=[N+]=NCc1ccccc1C[C@]1(C(=O)N2CCCCC2)N=C(c2ccc(OCCCO)cc2)O[C@H]1c1ccccc1N=[N+]=[N-]` ; what composite z-score value has been reported?
Reply: 1.19

These data points were gathered from PubChem BioAssay.
